As shown below, each of these compounds has a reported ED50 value.
Species on record: Mus musculus
Test: Beta-lactamase inhibitory activity against Staphylococcus aureus A20379 using oral mouse protection test in mice
Format: functional
Details: read-out: PD50
Quick note: give the figure in mg/kg, leave out the unit.

line_notation=CC1(C)S[C@@H]2[C@H](NC(=O)[C@H](N)c3ccc(O)cc3)C(=O)N2[C@H]1C(=O)O.CC1(C)[C@H](C(=O)O)N2C(=O)C[C@H]2S1(=O)=O endpoint_name=ED50 result_number=21

We next turn to a different compound, shown below.
IN: Please indicate ED50 recorded for CC1(C)S[C@@H]2[C@H](NC(=O)[C@H](N)c3ccc(O)cc3)C(=O)N2[C@H]1C(=O)O.C[C@]1(CCl)[C@H](C(=O)[O-])N2C(=O)C[C@H]2S1(=O)=O.[K+]
OUT: 34
